Source of measurements: patent US7732609B2

subject-of-test: gamma-secretase (Homo sapiens)
Construct: The assay used a partially purified extract of IMR-32 cell membranes as the gamma-secretase enzyme preparation; endogenous in cells
protocol: Gamma-secretase APP enzyme assay (MBP-C125 Swe cleavage at Aβ40 site, sandwich ELISA)
test-settings: IMR-32 cell membrane extract as enzyme; MBP-C125swe substrate; 2 h at 37° C; read-out: γAPP
measurement-label: IC50

C[C@H]1Cc2[nH]ncc2[C@H](C)N1S(=O)(=O)c1ccc(Cl)cc1 | < 50 nM
CC[C@H]1Cc2[nH]ncc2[C@@H](CC)N1S(=O)(=O)c1ccccn1 | 50 to 150 nM
O=S(=O)(c1ccc(Cl)cc1)N1Cc2cn[nH]c2CC1c1ccncc1 (stereo not shown) | 150 to 300 nM
CC[C@@H]1Cc2[nH]ncc2[C@@H](COC(=O)N(C)C)N1S(=O)(=O)c1ccc(Cl)cc1 | 150 to 300 nM
O=S(=O)(c1ccc(Cl)cc1)N1Cc2cn[nH]c2CC1c1cccnc1 (stereo not shown) | 50 to 150 nM

Please report the recorded IC50 for CN(C)C(=O)OC[C@@H]1c2cn[nH]c2CCN1S(=O)(=O)c1ccc(Cl)cc1 .
150 to 300 nM

###

Listed below: pIC50 values for each entry.
subject-of-test: gamma-secretase (Homo sapiens, UniProt P49768)
Construct: The assay used a partially purified extract of IMR-32 cell membranes as the gamma-secretase enzyme preparation; endogenous in cells
protocol: Gamma-secretase APP enzyme assay (MBP-C125 Swe cleavage at Aβ40 site, sandwich ELISA)
test-settings: IMR-32 cell membrane extract as enzyme; MBP-C125swe substrate; 2 h at 37° C; read-out: γAPP
pIC50: −log10 of the molar value.

Some solved entries appear below for comparison.
CC[C@@H]1c2cn[nH]c2C(=O)[C@H](CC)N1S(=O)(=O)c1ccc(Cl)cc1 | > 7.30
O=S(=O)(c1ccc(Cl)cc1)N1CCc2n[nH]cc2C1c1nccs1 (stereo not drawn) | > 7.30
O=S(=O)(c1ccc(Cl)cc1)N1Cc2c[nH]nc2CC1Cc1ccccc1 (stereo not drawn) | 6.82 to 7.30
CC(C)C1Cc2n[nH]cc2CN1S(=O)(=O)c1ccc(Cl)cc1 (stereo not drawn) | > 7.30

Look up pIC50: CC[C@@H]1Cc2[nH]ncc2[C@H](CC)N1S(=O)(=O)c1ccc(Cl)cc1
6.82 to 7.30

Note, next up: O=S(=O)(c1ccc(Cl)cc1)N1CCc2[nH]ncc2C1c1nc2ccccc2[nH]1 (stereo not drawn)
6.52 to 6.82

Next compound: CC[C@H]1Cc2[nH]ncc2[C@@H](COC(=O)N(C)C)N1S(=O)(=O)c1ccc(Cl)cc1
6.52 to 6.82

Quick one: O=S(=O)(c1ccc(Cl)cc1)N1Cc2cn[nH]c2CC1c1ccc(F)cc1 (stereo not drawn)
> 7.30

Similarly, O=S(=O)(c1ccc(Cl)cc1)N1Cc2c[nH]nc2CC1c1cncnc1 (single isomer, unassigned) ?
> 7.30

###

The following molecules are shown together with reported IC50 values.
subject-of-test: gamma-secretase (Homo sapiens)
Construct: The assay used a partially purified extract of IMR-32 cell membranes as the gamma-secretase enzyme preparation; endogenous in cells
protocol: Gamma-secretase APP enzyme assay (MBP-C125 Swe cleavage at Aβ40 site, sandwich ELISA)
test-settings: IMR-32 cell membrane extract as enzyme; MBP-C125swe substrate; 2 h at 37° C; read-out: γAPP

Some molecules with recorded IC50:
O=S(=O)(c1ccc(Cl)cc1)N1Cc2cn[nH]c2CC1c1cccc(F)c1 (stereo not shown) | < 50 nM
O=S(=O)(c1ccc(Cl)cc1)N1Cc2c(C(F)(F)F)n[nH]c2CC1c1ccc(Cl)cc1 (stereo not shown) | 150 to 300 nM
CCC1c2cn[nH]c2CC(CO)N1S(=O)(=O)c1ccc(Cl)cc1 (stereo not shown) | < 50 nM
O=S(=O)(c1ccc(Cl)cc1)N1Cc2cn[nH]c2CC1CO (stereo not shown) | 150 to 300 nM

Please look up its IC50: CCOC(=O)C1c2cn[nH]c2CC(CC)N1S(=O)(=O)c1ccc(Cl)cc1 (stereo not shown)
< 50 nM

// same read-out, input: CC[C@H]1Cc2n[nH]cc2[C@@H](CC)N1S(=O)(=O)c1ccc(Cl)cc1
< 50 nM

Moving on to the next molecule: CC[C@@H]1c2cn[nH]c2/C(=N\O)[C@H](CC)N1S(=O)(=O)c1ccc(Cl)cc1
50 to 150 nM
